# Experiment Summary: qHTS RealTime-Glo MT Cell Viability Assay in HepG2 cells - 32 hour (AID 1224877); further: nearly all actives have a fitted effect of over 55% in size
# Settings: RealTime-Glo luminescence; series mostly up to 76.8 µM
Results filed as inconclusive are left out. Calls of active or inactive are those of the source. The call rests on the fitted dose curve; in most records, active means well fitted cell-killing curve with a large enough effect in the repeat runs; inconclusive means weak or mixed curves; inactive means flat fitted curve, though single readings scatter.
Return exactly one item of t (active), f (inactive)

Example entries begin here.
Compound: COP(=O)(NC(C)=O)SC (stereo not drawn)
Label: f
//
Compound: CC(C)(c1ccc(OCC2CO2)cc1)c1ccc(OCC2CO2)cc1 (stereo not drawn)
Label: f

Per the records of this test, what outcome belongs to CCCCOC(=O)COC(=O)c1ccccc1C(=O)OCCCC ? f

Per the records of this test, what outcome belongs to CC(C)COC(=O)c1ccccc1C(=O)OCC(C)C ? f

Per the records of this test, what outcome belongs to CC(C)(C#N)N=NC(C)(C)C#N ? f

Per the records of this test, what outcome belongs to CC1CC(=O)O1 (stereo not drawn) ? f

Per the records of this test, what outcome belongs to CS(=O)(=O)NC(=O)c1cc(Oc2ccc(C(F)(F)F)cc2Cl)ccc1[N+](=O)[O-] ? f

* * *

# Target: Progesterone receptor (Homo sapiens) (UniProt P06401)
# Sequence (P06401 whole entry, looked up): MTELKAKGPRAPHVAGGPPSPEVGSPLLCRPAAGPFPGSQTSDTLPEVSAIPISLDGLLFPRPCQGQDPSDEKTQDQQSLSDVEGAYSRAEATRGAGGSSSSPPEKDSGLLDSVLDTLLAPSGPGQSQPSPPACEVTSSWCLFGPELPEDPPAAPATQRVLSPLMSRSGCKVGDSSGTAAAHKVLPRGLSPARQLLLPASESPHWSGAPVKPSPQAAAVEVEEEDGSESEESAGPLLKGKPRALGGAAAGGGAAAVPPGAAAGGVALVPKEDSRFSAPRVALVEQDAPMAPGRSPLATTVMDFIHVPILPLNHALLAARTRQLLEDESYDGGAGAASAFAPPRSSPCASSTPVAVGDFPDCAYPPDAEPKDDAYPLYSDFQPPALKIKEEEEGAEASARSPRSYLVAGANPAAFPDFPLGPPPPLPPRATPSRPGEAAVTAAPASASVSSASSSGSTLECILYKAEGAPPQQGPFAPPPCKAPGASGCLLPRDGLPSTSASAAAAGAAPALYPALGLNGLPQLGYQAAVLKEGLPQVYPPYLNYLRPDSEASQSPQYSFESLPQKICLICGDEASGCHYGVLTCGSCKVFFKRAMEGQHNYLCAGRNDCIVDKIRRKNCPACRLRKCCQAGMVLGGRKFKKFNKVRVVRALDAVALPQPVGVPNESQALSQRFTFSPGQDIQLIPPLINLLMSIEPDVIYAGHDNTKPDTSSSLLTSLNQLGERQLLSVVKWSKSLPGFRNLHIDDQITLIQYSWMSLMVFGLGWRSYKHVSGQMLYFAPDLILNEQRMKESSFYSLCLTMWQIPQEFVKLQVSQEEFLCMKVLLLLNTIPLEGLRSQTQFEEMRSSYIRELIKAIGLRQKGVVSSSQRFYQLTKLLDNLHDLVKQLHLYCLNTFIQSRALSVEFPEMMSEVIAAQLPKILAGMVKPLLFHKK
# Experiment Summary: qHTS assay to identify small molecule antagonists of the progesterone receptor (PR) signaling pathway (AID 1346795)
# Settings: PR-UAS-bla HEK293T, beta-lactamase FRET ratio, 16 h; series mostly up to 92.4 µM
# Description: National Center for Advancing Translational Sciences [NCATS] NIH Chemical Genomics Center [NCGC] U.S. Environmental Protection Agency [EPA] National Institutes of Environmental Health Sciences [NIEHS] National Toxicology Program [NTP] U.S. Food and Drug Administration [FDA] Progesterone receptor (PR), a nuclear hormone receptor, plays an important role in development, metabolic homeostasis and reproduction. […]
Records with an inconclusive call do not appear. Calls of active or inactive are those of the source. Calls follow the shape of the dose curve; as a rule, active = well fitted inhibition curve with a large enough effect in the signal ratio in the repeat runs (not every such curve was filed as active); inconclusive = weak or mixed curves; inactive = flat fitted curve, though single readings scatter; the % refers to the signal ratio.
Value Type: Potency

The examples below pair each entry with its known result.
Compound: CNC(=O)Oc1cccc2c1OC(C)(C)C2
Target: Progesterone receptor (Homo sapiens) (UniProt P06401)
Value Type: Potency
Result: inactive
//
Compound: O=NN(c1ccccc1)c1ccccc1
Target: Progesterone receptor (Homo sapiens) (UniProt P06401)
Value Type: Potency
Result: inactive
//
Compound: ClC(Cl)(Cl)c1ccccc1
Target: Progesterone receptor (Homo sapiens) (UniProt P06401)
Value Type: Potency
Result: inactive
//
Compound: CS(=O)(=O)NC(=O)c1cc(Oc2ccc(C(F)(F)F)cc2Cl)ccc1[N+](=O)[O-]
Target: Progesterone receptor (Homo sapiens) (UniProt P06401)
Value Type: Potency
Result: inactive
//
Compound: CC(C)(C#N)N=NC(C)(C)C#N
Target: Progesterone receptor (Homo sapiens) (UniProt P06401)
Value Type: Potency
Result: inactive

Below are some compounds; for each one, tell me its Potency.
1. Cc1cc(Cl)ccc1N=CN(C)C
2. CN(C)c1ccccc1

inactive
inactive

* * *

# Experiment Summary: qHTS assay to identify small molecule agonists of the TGF-beta/Smad signaling pathway - cell viability counter screen (AID 1346829); further: top concentration of the series differs between compounds; nearly all actives have a fitted effect of over 45% in size
# Settings: SBE-bla HEK293T viability, CellTiter-Glo luminescence, 5 h; series mostly up to 76.8 µM
# Source text: National Center for Advancing Translational Sciences [NCATS] NIH Chemical Genomics Center [NCGC] U.S. Environmental Protection Agency [EPA] National Institutes of Environmental Health Sciences [NIEHS] National Toxicology Program [NTP] U.S. Food and Drug Administration [FDA] Transforming growth factor beta (TGF-beta) superfamily consists of a large number of structurally related dimeric proteins that act as hormones or local mediators in regulating a wide range of biological functions. […]
Results filed as inconclusive are left out. Active and inactive are the calls of the source. Calls come from the whole dose curve; as a rule, active = well fitted cell-killing curve with a large enough effect in the repeat runs; inconclusive = weak or mixed curves, or effect the other way; inactive = flat fitted curve, though single readings scatter.
Value Type: outcome

Compound: CC1CC(=O)O1 (stereo not given)
Result: inactive
//
Compound: N#CC(c1ccccc1)c1ccccc1
Result: inactive
//
Compound: CC(C)=CC1C(C(=O)OCN2C(=O)C3=C(CCCC3)C2=O)C1(C)C (stereo not given)
Result: inactive
//
Compound: CCCCOC(=O)COC(=O)c1ccccc1C(=O)OCCCC
Result: inactive
//
Compound: Cn1c(-c2ccccc2)cc(-c2ccccc2)[n+]1C
Result: inactive

Below are some compounds; for each one, tell me its outcome.
1. Cc1ccc([N+](=O)[O-])cc1
2. C=C(C)C#N
3. CCOP(=S)(OCC)SCn1c(=O)oc2cc(Cl)ccc21
4. Clc1cccc(C(Cl)(Cl)Cl)n1
5. c1ccc(C2CO2)cc1 (stereo not given)
6. CN(C)P(=O)(N(C)C)N(C)C

1: inactive; 2: inactive; 3: inactive; 4: inactive; 5: inactive; 6: inactive

Below are some compounds; for each one, tell me its outcome.
1. CCNc1nc(Cl)nc(NC(C)(C)C#N)n1
2. ClC(Cl)=C(Cl)C(Cl)=C(Cl)Cl
3. C=CC(=O)OCC(CC)(COC(=O)C=C)COC(=O)C=C
4. CNC(=S)S

1: inactive; 2: inactive; 3: inactive; 4: inactive
